Entry source: patent US20220396627A1

target: Human Siglec-9-Fc (recombinant human Siglec-9 extracellular domain Q18-G348 fused to human IgG1 Fc) (human); test: BLI binning, hSiglec-9-Fc on AHC sensor; competitor bound first (row): 13H10 (printed 13H110)
Sequence (chain, as listed by the source limits assumed): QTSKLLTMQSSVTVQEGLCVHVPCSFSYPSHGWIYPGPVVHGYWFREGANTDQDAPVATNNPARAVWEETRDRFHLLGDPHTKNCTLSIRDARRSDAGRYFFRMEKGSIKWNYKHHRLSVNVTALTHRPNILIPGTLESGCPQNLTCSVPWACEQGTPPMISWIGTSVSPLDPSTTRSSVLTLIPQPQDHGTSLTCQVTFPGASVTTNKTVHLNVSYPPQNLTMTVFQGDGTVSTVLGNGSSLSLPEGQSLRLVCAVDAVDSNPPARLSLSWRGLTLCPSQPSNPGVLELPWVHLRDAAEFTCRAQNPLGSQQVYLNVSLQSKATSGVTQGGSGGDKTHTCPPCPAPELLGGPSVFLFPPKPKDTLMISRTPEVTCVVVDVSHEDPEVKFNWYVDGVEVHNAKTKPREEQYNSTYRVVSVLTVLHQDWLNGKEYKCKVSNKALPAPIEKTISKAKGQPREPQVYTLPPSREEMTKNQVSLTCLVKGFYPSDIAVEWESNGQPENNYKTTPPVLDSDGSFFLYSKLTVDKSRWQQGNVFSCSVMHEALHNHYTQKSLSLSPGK
Listed here are binders together with their documented maximum binding nm shift.
The reply should contain only the number, in nm.

Past entries and their recorded results:
Name the recorded maximum binding nm shift for 9D21 (antibody, V domains shown) VH: QVQLKESGPGLVAPSQSLSITCTVSGFSLTRYGVSWVRQPPGKGLEWLGVIWGDGSTNYHSALISRLSISKDNSKSQVFLKLNSLQTDDTATYYCARPYYGFFDYWGQGTTLTVSS VL: SIVMTQTPKFLLVSAGDRVTITCKASQSVSNAVAWYQQKPGQSPKMLIYYASNRYTGVPDRFTGSGYGTDFTFTISTVQAEDLAVYFCQQDYSSPYTFGGGTKLEIK . 0.686

Name the recorded maximum binding nm shift for 12P18 (antibody, V domains shown) VH: QVQLQQSGAELVRPGASVTLSCKASGYTFTDYEMHWVKQTPVHGLEWIGAIDPEAGGTAYNRKFKGKAILTADKSSSTAYMELRSLTSEDSAVYYCTNLGRDYWGQGTTLTVSS VL: DIVMSQSPSSLAVSVGEKVTMSCKSSQSLLYSSTQKNYLAWYQQKPGQSPKRLIYWASTRESGVPDRFTGSGSGTDFTLTISSVKAEDLAVYYCQQYYSYWTFGGGTKLEIK . 0.336

Name the recorded maximum binding nm shift for 9C15 (antibody, V domains shown) VH: QVQLQQPGAELVKPGASVKMSCKASGYTFTSYWITWLNQRPGQGLEWIGDIYPGSGGTNYNERFKSKATLTVDTSSSTAYMQLSSLTSEDSAVYYCARSGGWAMDYWGQGTSVTVSS VL: DIQMTQTTSSLSASLGDRVTISCRASQDISNYLNWYQQKPDGTVKLLIYYKSGLHSGVPSRFSGSGSGTDYSLTISNLEQEDIATYFCQQGNTLPFTFGGGTKLEIK . 0.336

Name the recorded maximum binding nm shift for 12G23 (antibody, V domains shown) VH: EVQLQQSGPELVRPGASVKMSCKASGYTFTDYNMHWVKQSHGKSLEWIGYINPNNGGTSYNQKFKGKATLTVNKSSSTAYMELRSLTSDDSAVYYCAREGYGNYPFYWGQGTTLTVSS VL: DIVLTQSPASLAVSLGQRVTISCRGSESVEYYGTSLMQWYQQKPGQPPKLLIYAASNVESGVPARFSGSGSGTDFSLNIHPVEEDDIAMYFCQQDRKVPYTFGGGTKLEIK . 0.242

Name the recorded maximum binding nm shift for 12L19 (antibody, V domains shown) VH: QVTLKESGPGILQPSQTLSLTCSFSGFSLNTFGMAVGWIRQPSGKGLEWLAHIWWDDSYYFNPALRSRLTISKDTSKNQVFLTIANVDTADTATYYCTRIPDDYDDYAMDYWGQGTSVTVSS VL: DVVMTQTPLSLPVSLGDQASISCRSSQSLVHSNGNTYLHWYLQKPGQSPKLLVYKVSNRFSGVPDRFSGSGSGTDFTLKISRVEAEDLGVYFCSQNTHIPYTFGGGTKLEIK . -0.02

New cases:
Name the recorded maximum binding nm shift for 13O18 (antibody, V domains shown) VH: EVQLQQSGPELVRPGASVKMSCKASGYTFTDYNMHWVKQSHGKSLEWIGYINPNNGGTTYNQNFKGKATLTVNKSSSTAYMELRSLTSEDSAVYYCAREGYGNYPFYWGQGTTLTVSS VL: DIVLTQSPASLAVSLGQRVTISCRASESVEYYGTSLMQWYQQKPGQPPKLLIYAASNVESGVPARFSGSGSGTDFSLNIHPVEEDDIAMFFCQQDRKVPYTFGGGTKLEIK . 0.224
